biological target: Beta5 (purified human constitutive proteasome) (Homo sapiens); test: Determination of Beta5 activity (fluorescence intensity assay, Suc-LLVY-AMC); format: biochemical; conditions: incubation for 20 minutes
pIC50: −log10 of the molar value.
Listing: pIC50 of selected molecules

Some molecules with known pIC50 results, for comparison:
>>> obs_value("CCN(CC(=O)N[C@@H](Cc1ccc(C)cc1C)B(O)O)S(=O)(=O)c1cccc(C)c1")
"6.30 to 7.30"
>>> obs_value("CCN(CCC(=O)N[C@@H](Cc1ccc(F)cc1)B(O)O)C(=O)c1ccc(C(F)(F)F)cc1")
"6.30 to 7.30"
>>> obs_value("CCN(CC(=O)N[C@@H](Cc1ccc(C)cc1C)B(O)O)C(=O)CCl")
"< 5.30"
>>> obs_value("CC(C)N(CCC(=O)N[C@@H](Cc1ccccc1)B(O)O)C(=O)c1ccccc1")
"5.30 to 6.30"
>>> obs_value("CCN(CC(=O)N[C@@H](Cc1ccc(C)cc1C)B(O)O)S(=O)(=O)c1ccc(C)cc1")
"5.30 to 6.30"

Query string: Given the molecule "Cc1ccc(S(=O)(=O)N(C)CC(=O)N[C@@H](Cc2ccc(C)cc2C)B(O)O)cc1" , what is its reported pIC50?
Result string: 6.30 to 7.30

Query string: Given the molecule CN(C)C(=O)C(C(=O)N[C@@H](Cc1coc2ccccc12)B(O)O)c1ccccc1 (stereo partly shown) , what is its reported pIC50?
Result string: 5.30 to 6.30

Query string: Given the molecule "Cc1ccc(S(=O)(=O)N(CC(=O)N[C@@H](Cc2ccc(C)cc2C)B(O)O)C(C)C)cc1" , what is its reported pIC50?
Result string: 5.30 to 6.30

====

molecular target: Beta5 (purified human constitutive proteasome) (Homo sapiens, UniProt P28074); assay: Determination of Beta5 activity (fluorescence intensity assay, Suc-LLVY-AMC); type: biochemical; conditions: incubation for 20 minutes
pIC50: −log10 of the molar value.
Assay readout: pIC50

>>> obs_value("CCN(CC(=O)N[C@@H](Cc1ccc(C)cc1C)B(O)O)C(=O)CSC [Compound No. 36]")
"< 5.30"

Query string: Given the molecule Cc1ccc(C[C@H](NC(=O)CN(c2ccccc2)S(=O)(=O)c2ccccc2)B(O)O)c(C)c1 [Compound No. 35] , what is its reported pIC50?
Result string: 6.30 to 7.30

Query string: Given the molecule CCC(=O)N(CC(=O)N[C@@H](Cc1ccsc1)B(O)O)c1ccccc1F [Compound No. 39] , what is its reported pIC50?
Result string: < 5.30

Query string: Given the molecule Cc1ccc(C[C@H](NC(=O)CCN(c2ccccc2)S(C)(=O)=O)B(O)O)cc1 [Compound No. 3] , what is its reported pIC50?
Result string: 6.30 to 7.30

Query string: Given the molecule CCN(CCC(=O)N[C@@H](Cc1ccc(C)cc1C)B(O)O)C(=O)c1ccc(C)cc1 [Compound No. 19] , what is its reported pIC50?
Result string: 5.30 to 6.30

Query string: Given the molecule CCc1cccc(C[C@H](NC(=O)CCCC(=O)N(C)C)B(O)O)c1 [Compound No. 18] , what is its reported pIC50?
Result string: < 5.30

Query string: Given the molecule O=C(CCS(=O)(=O)c1ccccc1)N[C@@H](Cc1coc2ccccc12)B(O)O [Compound No. 4] , what is its reported pIC50?
Result string: > 7.30

Query string: Given the molecule CCC(=O)N(CC(=O)N[C@@H](Cc1ccc(C)cc1C)B(O)O)c1ccccc1 [Compound No. 34] , what is its reported pIC50?
Result string: 5.30 to 6.30
